# Test system: S. mansoni newly transformed schistosomula (NTS)
# test_description: Schistosomicidal activity ex vivo, NTS (Cell Titer Glo)
# Assay type: cell-based
# settings: Schistosoma mansoni
Entries annotated with measured viability at 15 µM
measured_attribute: viability at 15 µM (%)

INSERT INTO assay_data (input_smiles, unit_abbrev, test_value) VALUES
  ('C#CCN(Cc1nc(-c2ccccc2)oc1C)[C@@H]1C[C@@H]2C[C@H]([C@H]1C)C2(C)C', '%', 57),
  ('CCc1ccccc1-c1nc(CN[C@@H]2C[C@@H]3C[C@H]([C@H]2C)C3(C)C)c(C)o1', '%', 0.0945),
  ('Cc1oc(-c2ccc3c(c2)OCO3)nc1CN[C@@H]1C[C@@H]2C[C@H]([C@H]1C)C2(C)C', '%', 30),
  ('C[C@@H]1[C@H]2C[C@@H](C[C@H]1NCc1nc3ccccc3n1C1CCCCCC1)C2(C)C', '%', 28.2);

---

# system_name: Human GR (Homo sapiens)
# Construct: made in house
# Sequence (P00390 44-522): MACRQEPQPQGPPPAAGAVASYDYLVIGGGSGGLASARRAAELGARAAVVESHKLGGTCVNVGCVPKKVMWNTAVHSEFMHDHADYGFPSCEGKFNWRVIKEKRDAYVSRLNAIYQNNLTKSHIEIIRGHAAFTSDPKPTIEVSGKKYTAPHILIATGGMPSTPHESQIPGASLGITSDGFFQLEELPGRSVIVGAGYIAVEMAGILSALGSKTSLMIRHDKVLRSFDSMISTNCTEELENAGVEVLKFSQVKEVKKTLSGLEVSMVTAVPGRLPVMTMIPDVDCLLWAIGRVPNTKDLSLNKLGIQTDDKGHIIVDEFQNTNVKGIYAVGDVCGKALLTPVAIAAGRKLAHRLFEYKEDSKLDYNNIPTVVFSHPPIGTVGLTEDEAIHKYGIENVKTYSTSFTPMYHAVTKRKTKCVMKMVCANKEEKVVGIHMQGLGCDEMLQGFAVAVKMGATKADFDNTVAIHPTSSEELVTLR
# test_description: Human GR enzyme inhibition (GSSG reduction, NADPH oxidation)
# Type: biochemical
# settings: hGR, 15 minutes pre-incubation, compound 15 µM; read-out: % inhibition
measured_attribute: inhibition at 15 µM (%)

INSERT INTO measurements (molecule, test_value) VALUES
  ('CC1C(NCc2cn(C3OCC(O)C(O)C3O)c3ccccc23)CC2CC1C2(C)C (stereo not drawn) [Compound 9]', -0.142),
  ('Cc1oc(-c2ccc3c(c2)OCO3)nc1CN[C@@H]1C[C@@H]2C[C@H]([C@H]1C)C2(C)C [Compound 1]', -1.22),
  ('C[C@@H]1[C@H]2C[C@@H](C[C@H]1NCc1nc3ccccc3n1C1CCCCCC1)C2(C)C [Compound 8]', -0.934),
  ('Cc1oc(C2CCCCC2)nc1C(=O)N[C@@H]1C[C@@H]2C[C@H]([C@H]1C)C2(C)C [Compound 7]', -0.669),
  ('C#CCN(Cc1nc(-c2ccccc2)oc1C)[C@@H]1C[C@@H]2C[C@H]([C@H]1C)C2(C)C [Compound 6]', -0.749),
  ('CCc1ccccc1-c1nc(CN[C@@H]2C[C@@H]3C[C@H]([C@H]2C)C3(C)C)c(C)o1 [Compound 2]', -0.995);

---

# system_name: TGR (Schistosoma mansoni, UniProt Q962Y6)
# Construct: made in house
# Sequence (Q962Y6 1-598): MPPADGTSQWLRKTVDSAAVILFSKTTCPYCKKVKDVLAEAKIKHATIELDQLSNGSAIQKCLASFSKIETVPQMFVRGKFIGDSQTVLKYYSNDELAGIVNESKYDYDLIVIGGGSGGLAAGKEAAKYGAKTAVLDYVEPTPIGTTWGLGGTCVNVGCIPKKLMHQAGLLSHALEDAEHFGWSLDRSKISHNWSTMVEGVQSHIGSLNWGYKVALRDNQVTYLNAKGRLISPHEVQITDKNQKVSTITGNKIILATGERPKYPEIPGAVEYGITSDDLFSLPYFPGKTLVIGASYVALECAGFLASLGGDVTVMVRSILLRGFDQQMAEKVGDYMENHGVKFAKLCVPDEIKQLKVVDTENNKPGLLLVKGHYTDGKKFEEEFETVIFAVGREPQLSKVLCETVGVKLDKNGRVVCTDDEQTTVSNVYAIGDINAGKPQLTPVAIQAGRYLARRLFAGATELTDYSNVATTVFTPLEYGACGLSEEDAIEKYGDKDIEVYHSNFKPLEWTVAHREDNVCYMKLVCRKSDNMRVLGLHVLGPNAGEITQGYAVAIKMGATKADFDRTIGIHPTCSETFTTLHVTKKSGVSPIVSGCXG
# test_description: Time dependence of inhibition
# Assay type: biochemical
# Parameters: tested at 50 µM
# settings: panel d Time Dependence; 6 hr; average
Entries annotated with measured avg % inhib, 6 hr
measured_attribute: avg % inhib, 6 hr (%)

INSERT INTO measurements (input_smiles, test_value) VALUES
  ('Cc1oc(-c2ccc3ccccc3c2)nc1CNC1CCCCCC1', 53.9938),
  ('Cc1oc(-c2ccccc2)nc1CN[C@@H]1C[C@@H]2C[C@H]([C@H]1C)C2(C)C', 55.8948),
  ('Cc1oc(-c2ccc3c(c2)OCO3)nc1CN[C@@H]1C[C@@H]2C[C@H]([C@H]1C)C2(C)C', 12.8202),
  ('Cc1oc(C2CCCCC2)nc1CN[C@@H]1C[C@@H]2C[C@H]([C@H]1C)C2(C)C', 70.958);

---

Entries annotated with measured inhibition at 66.7 µM
# system_name: S. mansoni TGR (Schistosoma mansoni, UniProt Q962Y6)
# Construct: made in house
# test_description: S. mansoni TGR enzyme inhibition (DTNB reduction)
# Type: biochemical
# settings: 6 h preincubation (enzyme + 100 µM NADPH + compound); read-out: S. mansoni TGR inhibition (%) at 66.7 µM
measured_attribute: inhibition at 66.7 µM (%)

INSERT INTO assay_data (input_smiles, measured_attribute, test_value) VALUES
  ('Cc1oc(-c2ccccc2)nc1CN[C@@H]1C[C@@H]2C[C@H]([C@H]1C)C2(C)C', 'inhibition at 66.7 µM', 45),
  ('CCc1ccccc1-c1nc(CN[C@@H]2C[C@@H]3C[C@H]([C@H]2C)C3(C)C)c(C)o1', 'inhibition at 66.7 µM', 28.7),
  ('Cc1oc(-c2ccc3ccccc3c2)nc1CNC1CCCCCC1', 'inhibition at 66.7 µM', 73),
  ('Cc1oc(C2CCCCC2)nc1CN[C@@H]1C[C@@H]2C[C@H]([C@H]1C)C2(C)C', 'inhibition at 66.7 µM', 68.6),
  ('Cc1oc(-c2ccc3c(c2)OCO3)nc1CN[C@@H]1C[C@@H]2C[C@H]([C@H]1C)C2(C)C', 'inhibition at 66.7 µM', 42.1);

---

Entries annotated with measured TGR inhibition visualized by TRFS-Green, Average
# System: TGR in newly transformed schistosomula (NTS)
# test_description: TGR inhibition in NTS with TRFS-Green fluorescent probe;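 further: untreated reference is NTS exposed to TRFS-Green probe alone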
# Assay type: cell-based, S. mansoni
# settings: NTS, 1hr, 15 µM
measured_attribute: TGR inhibition visualized by TRFS-Green, Average

INSERT INTO measurements (molecule, system_name, test_value) VALUES
  ('Cc1oc(C2CCCCC2)nc1C(=O)N[C@@H]1C[C@@H]2C[C@H]([C@H]1C)C2(C)C [C7 (8VP108)]', 'TGR in newly transformed schistosomula (NTS)', 10865),
  ('Cc1oc(C2CCCCC2)nc1CN[C@@H]1C[C@@H]2C[C@H]([C@H]1C)C2(C)C [C4 (8VP121-1)]', 'TGR in newly transformed schistosomula (NTS)', 11617.5),
  ('C[C@@H]1[C@H]2C[C@@H](C[C@H]1NCc1nc3ccccc3n1C1CCCCCC1)C2(C)C [C8 (9VP173)]', 'TGR in newly transformed schistosomula (NTS)', 11107.5),
  ('CCc1ccccc1-c1nc(CN[C@@H]2C[C@@H]3C[C@H]([C@H]2C)C3(C)C)c(C)o1 [C2 (8VP101)]', 'TGR in newly transformed schistosomula (NTS)', 10104),
  ('C[C@@H]1[C@H]2C[C@@H](C[C@H]1NCc1nc3ccccc3n1C)C2(C)C [C12 (8VP51)]', 'TGR in newly transformed schistosomula (NTS)', 10673),
  ('Cc1oc(-c2ccc3c(c2)OCO3)nc1CN[C@@H]1C[C@@H]2C[C@H]([C@H]1C)C2(C)C [C1 (8VP70)]', 'TGR in newly transformed schistosomula (NTS)', 9457);

---

# System: S. mansoni adult worms
# test_description: GSH/GSSG ratio in ex vivo adult worms
# Format: cell-based
# settings: adult worms ex vivo, 1 hr
measured_attribute: % Ratio GSH/GSSG (%)

INSERT INTO assay_data (molecule, unit_abbrev, test_value) VALUES
  ('C[C@@H]1[C@H]2C[C@@H](C[C@H]1NCc1cc(-c3ccccc3)[nH]n1)C2(C)C [Compound 11]', '%', 59.9789),
  ('C[C@@H]1[C@H]2C[C@@H](C[C@H]1NCc1nc3ccccc3n1C)C2(C)C [Compound 12]', '%', 59.2209),
  ('Cc1oc(C2CCCCC2)nc1C(=O)N[C@@H]1C[C@@H]2C[C@H]([C@H]1C)C2(C)C [Compound 7]', '%', 52.5902),
  ('C[C@@H]1[C@H]2C[C@@H](C[C@H]1NCc1nc3ccccc3n1C1CCCCCC1)C2(C)C [Compound 8]', '%', 52.2584),
  ('Cc1oc(-c2ccc3ccccc3c2)nc1CNC1CCCCCC1 [Compound 5]', '%', 47.8314);

---

Entries annotated with measured concentration at 60 min
# test_description: Pharmacokinetics, intraperitoneal administration
# Format: in vivo, Swiss Webster mice
# settings: male, Swiss Webster, mouse, plasma, ip, 100 mg/kg, mice, intraperitoneal, 60 min
measured_attribute: concentration at 60 min (ng/mL)

INSERT INTO measurements (compound, test_value) VALUES
  ('CCc1ccccc1-c1nc(CN[C@@H]2C[C@@H]3C[C@H]([C@H]2C)C3(C)C)c(C)o1 [Compound 2]', 1520),
  ('Cc1oc(-c2ccc3c(c2)OCO3)nc1CN[C@@H]1C[C@@H]2C[C@H]([C@H]1C)C2(C)C [Compound 1]', 1210);
